target-desc: human OCT2 (Homo sapiens, UniProt O15244)
Construct: expressed in transfected cells; host or cells: HEK293 (Flp-In system)
Sequence (O15244 1-555): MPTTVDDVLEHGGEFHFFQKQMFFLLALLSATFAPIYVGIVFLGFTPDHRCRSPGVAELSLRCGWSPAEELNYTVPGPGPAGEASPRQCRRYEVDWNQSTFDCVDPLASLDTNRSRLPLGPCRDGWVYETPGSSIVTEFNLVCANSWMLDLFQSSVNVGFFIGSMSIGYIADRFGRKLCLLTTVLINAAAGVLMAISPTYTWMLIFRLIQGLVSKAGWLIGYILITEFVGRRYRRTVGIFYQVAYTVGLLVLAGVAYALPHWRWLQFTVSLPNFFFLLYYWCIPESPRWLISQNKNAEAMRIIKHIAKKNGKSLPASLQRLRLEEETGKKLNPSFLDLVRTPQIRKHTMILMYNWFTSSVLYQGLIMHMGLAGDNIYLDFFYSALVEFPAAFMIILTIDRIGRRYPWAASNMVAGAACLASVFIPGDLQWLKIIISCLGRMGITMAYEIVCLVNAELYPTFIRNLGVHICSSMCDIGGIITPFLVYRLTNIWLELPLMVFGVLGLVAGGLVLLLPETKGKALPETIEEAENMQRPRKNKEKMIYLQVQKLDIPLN
method-description: Uptake in HEK293 cells stably overexpressing human OCT2
Assay type: in vitro ADME
condition: human, HEK293 cells stably overexpressing human OCT2, pH 7.4; OCT2-mediated uptake, HEK293, 2 min, Michaelis–Menten fit; read-out: KM ± SEM, hOCT2
Counter-ions that a name gives are not always drawn.
observable: Km at 2 min (µM)
Please state the figure in µM; there is no need to write the unit.

Which Km at 2 min value belongs to CN(C)C(=N)N=C(N)N [Metformin, metformin hydrochloride] ?
766

====

Tested on: dog OCT1
method-description: Uptake in HEK293 cells stably overexpressing dog OCT1
condition: intrinsic clearance = vmax divided by KM for each experiment
Structures can show the parent of a compound that is named as a salt.
observable: CLint ± SEM, dOCT1

# example entries with known answers
{"compound": "O=C(O[C@H]1C[C@H]2CC[C@@H](C1)[N+]21CCCC1)C(O)(c1ccccc1)c1ccccc1 [Trospium, trospium chloride]", "target-desc": "dog OCT1", "CLint ± SEM, dOCT1": "146 ± 10.3 µL × min^−1 × mg Protein^−1"}
{"compound": "CN(C)C(=N)N=C(N)N [Metformin, metformin hydrochloride]", "target-desc": "dog OCT1", "CLint ± SEM, dOCT1": "63.1 ± 12.0 µL × min^−1 × mg Protein^−1"}
{"compound": "CCCC[N+]1(C)[C@@H]2C[C@@H](OC(=O)[C@H](CO)c3ccccc3)C[C@H]1[C@@H]1O[C@@H]12 (stereo partly shown) [Butylscopolamine, butylscopolamine bromide]", "target-desc": "dog OCT1", "CLint ± SEM, dOCT1": "80.5 ± 12.3 µL × min^−1 × mg Protein^−1"}

Then there is this compound:
Give its CLint ± SEM, dOCT1 value. Item: CC(Cc1ccc(O)cc1)NCC(O)c1cc(O)cc(O)c1 (stereo not shown) [Fenoterol, Fenoterol hydrochloride]
80.7 ± 7.76 µL × min^−1 × mg Protein^−1

====

Test system: dog OCT1
method-description: Uptake in HEK293 cells stably overexpressing dog OCT1
condition: dog, HEK293 cells stably overexpressing dog OCT1, pH 7.4
Counter-ions that a name gives are not always drawn.
observable: Km at 2 min (µM)
Field format: number, assumed µM, no unit text.

{"molecule": "CN(C)C(=N)N=C(N)N [Metformin, metformin hydrochloride]", "observable": "Km at 2 min", "experimental-value": 204}

Name the reported Km at 2 min value associated with the molecule CCCC[N+]1(C)[C@@H]2C[C@@H](OC(=O)[C@H](CO)c3ccccc3)C[C@H]1[C@@H]1O[C@@H]12 (some centres unmarked) [Butylscopolamine, butylscopolamine bromide]
18.7

Data origin, for the record: paper PMC9102066
